# credit: paper PMC5540273

# Tested on: TIE2
# Construct: gene TEK
# ASSAY_CONDITIONS: concentration: 1 μM, replicates: in singlicate; n = 1;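 also: KINOMEscan kinase panel screen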
# %Inh per record follows
Enter your answer as a number in %; do not include the unit.

// solved cases for %Inh follow
> print(dat)
                                   molecule  endpoint.label  val
1  C[C@@H]1CCN(C(=O)CO)C[C@@H]1N(C)c1ncnc2[nH]ccc12            %Inh    2
2  Cc1cccc(-c2nc(Nc3ccc4[nH]nnc4c3)c3ccccc3n2)n1 [GW867587]            %Inh    0
3  Cc1ccc(C)c(NC(=O)NCCNc2ccnc(Nc3ccc(F)cc3)n2)c1 [GSK1379878]            %Inh    0
4  FC(F)(F)c1ccc(-c2nn3ncccc3c2-c2ccnc(Nc3cccc(C(F)(F)F)c3)n2)cc1 [GW828205]            %Inh   52

We next turn to a different molecule, shown below.
Request: Record request: %Inh value, item CNc1nccc(-c2c(-c3ccc(F)cc3)ncn2C2CCN(C)CC2)n1 [SB-222903]
Result: 0

###

# Test system: PYK2
# Construct: gene PTK2B
# ASSAY_CONDITIONS: concentration: 1 μM, replicates: in singlicate; n = 1
Mark 1 (yes) only for %Inh values smaller than 20%; exact matches and larger values are 0 (no).

Example results:
> print(dat)
                                   molecule  assay.system  discrete.label
1  Nc1nc(-c2ccc3c(N)n[nH]c3c2)cc(N2CCC[C@@H](C(=O)Nc3ccccc3)C2)n1.O=C(O)C(F)(F)F.O=C(O)C(F)(F)F          PYK2         1 (yes)
2  COc1ccc(Nc2nccc(N3CCC(NC(=O)c4cccc(NC(C)=O)c4)C3)n2)cc1 (centres unmarked)          PYK2         1 (yes)
3  CN1c2ccc(-c3ccc(C(=O)NCCO)cc3)cc2-c2[nH]ncc2S1(=O)=O          PYK2         1 (yes)
4  COc1ccc(Nc2nccc(N3CCC(NC(=O)Nc4ccc5c(c4)OCO5)C3)n2)cc1 (centres unmarked)          PYK2          0 (no)
5  CNc1nccc(-c2c(-c3ccc(F)cc3)ncn2CCCN2CCOCC2)n1          PYK2         1 (yes)
6  COc1cc2c(Nc3cccc(NC(=O)c4ccccc4)c3)ncnc2cc1OCCCN1CCOCC1          PYK2          0 (no)

Request: Take the molecule `Fc1cccc(COc2ccc(Nc3ncnc4cc[nH]c34)cc2Cl)c1` and say whether its %Inh is less than 20%.
Result: 1 (yes)

Request: Here is the next molecule: `O=C(Nc1n[nH]c2nc(-c3ccco3)c(Br)cc12)c1ccc(CN2CCCC2)cc1.O=C(O)[C@H](O)[C@@H](O)C(=O)O`
Result: 0 (no)

###

# Tested on: TIE2
# Construct: gene TEK
# ASSAY_CONDITIONS: concentration: 1 μM, replicates: in singlicate; n = 1
ENDPOINT_LABEL: %Inh (%)
Enter your answer as a number in %; do not include the unit.

Request: Record request: %Inh value, item `COc1ccc(NC(=O)Nc2ccc(C)c(-c3ccc(C(=O)Nc4ccncc4)cc3)c2)cc1`
Result: 0

Request: Here is the next compound: `O=C(CCO)NCCn1ccc2ncnc(Nc3ccc(Oc4cccc(C(F)(F)F)c4)c(Cl)c3)c21`
Result: 0

Request: Here is the next compound: `Cc1ccc(O)cc1Nc1cc(C(F)(F)F)nc2ccc(-c3ccncc3)cc12`
Result: 3

###

# %Inh per record follows
# System: MEK6
# Construct: gene MAP2K6
# ASSAY_CONDITIONS: concentration: 1 μM, replicates: in singlicate; n = 1
Enter your answer as a number in %; do not include the unit.

Request: Record request: %Inh value, item O=C(c1ccc(-c2cc(-c3c[nH]nc3-c3ccccn3)ccn2)cc1)N1CCCC1 [GW792479]
Result: 0

Request: Here is the next compound: COc1ccc(NC(=O)Nc2ccc(C)c(-c3ccc(C(=O)Nc4ccncc4)cc3)c2)cc1 [GSK1398475]
Result: 0

Request: Here is the next compound: CNc1nccc(-c2c(-c3ccc(F)cc3)ncn2CCCN2CCOCC2)n1 [SB-222516]
Result: 0

Request: Here is the next compound: CSc1nn2c(=O)cc(N3CCOCC3)nc2n1Cc1cccc(Cl)c1Cl [GSK2347225]
Result: 0

###

# Tested on: CSF1R
# ASSAY_CONDITIONS: concentration: 1 μM, replicates: in singlicate; n = 1
Mark yes (1) only for %Inh values smaller than 10%; exact matches and larger values are no (0).

> print(dat)
                                item.smiles  discrete.label
1  COc1ccc(-c2oc3ncnc(N)c3c2-c2ccc(OC)cc2)cc1          no (0)

Request: Take the compound `COC(=O)c1cccc(NC(=O)NCCNc2ccnc(Nc3ccc(F)cc3)n2)c1` and say whether its %Inh is less than 10%.
Result: no (0)

Request: Here is the next compound: `FC(F)(F)c1cc(Nc2nccc(-c3c(-c4ccc(Cl)cc4)nn4ncccc34)n2)ccc1Cl`
Result: yes (1)

Request: Here is the next compound: `CS(=O)(=O)CCNCc1ccc(-c2ccc3ncnc(Nc4ccc(OCc5ccccc5)c(Cl)c4)c3c2)o1.Cl`
Result: yes (1)

###

# %Inh per record follows
# Tested on: MST1R
# ASSAY_CONDITIONS: concentration: 1 μM, replicates: in singlicate; n = 1
Enter your answer as a number in %; do not include the unit.

> print(dat)
                                item.smiles  val
1  O=c1cc(N2CCOCC2)nc2n(Cc3cccc(Cl)c3)ccn12   17
2  FC(F)(F)c1ccc(-c2nn3ncccc3c2-c2ccnc(Nc3cccc(C(F)(F)F)c3)n2)cc1    0
3  CN1c2ccc(-c3ccc(C(=O)NCCO)cc3)cc2-c2[nH]ncc2S1(=O)=O    0
4  FC(F)(F)c1cc(Nc2nccc(-c3c(-c4ccc(Cl)cc4)nn4ncccc34)n2)ccc1Cl    0

Request: Lab note: need %Inh for `O=C(Nc1ccccc1)Nc1ccc(Oc2ccc3nccn3n2)cc1` on MST1R, anyone have it?
Result: 18

Request: Here is the next molecule: `CC(=O)Nc1n[nH]c2ncc(-c3ccccc3)cc12`
Result: 41

Request: Here is the next molecule: `Cc1cccc(-c2nc(Nc3ccc4[nH]nnc4c3)c3ccccc3n2)n1`
Result: 0

Request: Here is the next molecule: `Nc1n[nH]c2nnc(-c3ccccc3)cc12`
Result: 27

Request: Here is the next molecule: `Cc1cc(N2CCC(NS(=O)(=O)c3ccc(F)cc3)CC2)nc(Nc2cccc(C#N)c2)n1.O=C(O)C(F)(F)F`
Result: 17

###

# Test system: SGK2
# ASSAY_CONDITIONS: concentration: 1 μM, replicates: in singlicate; n = 1
ENDPOINT_LABEL: %Inh (%)
Enter your answer as a number in %; do not include the unit.

> print(dat)
                          item.smiles  assay.system  val
1  CC(=O)Nc1n[nH]c2ncc(-c3ccccc3)cc12          SGK2    9

Request: Record request: %Inh value, item `CNc1nccc(-c2c(-c3ccc(F)cc3)ncn2C2CCN(C)CC2)n1`
Result: 0

Request: Here is the next molecule: `C[C@@H]1CCN(C(=O)CO)C[C@@H]1N(C)c1ncnc2[nH]ccc12`
Result: 0

Request: Here is the next molecule: `Cl.c1ccc(Cn2ccc3cc(Nc4ncnc5ccccc45)ccc32)cc1`
Result: 0

Request: Here is the next molecule: `Fc1ccc(Nc2nccc(-c3c(-c4ccc(Cl)cc4)nn4ncccc34)n2)cc1F`
Result: 17

Request: Here is the next molecule: `Cn1ccc2ncnc(Oc3ccc(NC(=O)Nc4cccnc4)c(Cl)c3)c21`
Result: 8

Request: Here is the next molecule: `O=c1cc(N2CCOCC2)nc2n(Cc3cccc(Cl)c3)ccn12`
Result: 0

Request: Here is the next molecule: `O=C(CCO)NCCn1ccc2ncnc(Nc3ccc(Oc4cccc(C(F)(F)F)c4)c(Cl)c3)c21`
Result: 0

Request: Here is the next molecule: `CN1CCC(n2cnc(-c3ccc(F)cc3)c2-c2ccnc(NC3CCNCC3)n2)CC1`
Result: 87

Request: Here is the next molecule: `FC(F)(F)c1ccc(-c2cc(-c3c[nH]nc3-c3ccccn3)ccn2)cc1`
Result: 9

Request: Here is the next molecule: `Nc1nc(-c2ccc3c(N)n[nH]c3c2)cc(N2CCC[C@@H](C(=O)Nc3ccccc3)C2)n1.O=C(O)C(F)(F)F.O=C(O)C(F)(F)F`
Result: 0

Request: Here is the next molecule: `Cc1ccc(C)c(NC(=O)NCCNc2ccnc(Nc3ccc(F)cc3)n2)c1`
Result: 0
